- Target Of Assay: T1, human CD28, full-length, expressed on transfected Expi293 cells (human, UniProt P10747 19-220)
- T1 construct: whole, on cells
- Assay Name: flow cytometry, 100 nM, Expi293 cells with human CD28
Property Label: MFI (MFI)
Numbers only, in MFI.

Tell us which MFI value is on record for variant ICOSL IgV-Fc fusion N52P/N57S/Q100G (Fc fusion) DTQEKEVRAMVGSDVELSCACPEGSRFDLNDVYVYWQTSESKTVVTYHIPQPSSLESVDSRYRNRALMSPAGMLRGDFSLRLFNVTPQDEQKFHCLVLSGSLGFQEVLSVEVTLHVAANFSVGSGGGGSEPKSSDKTHTCPPCPAPEAEGAPSVFLFPPKPKDTLMISRTPEVTCVVVDVSHEDPEVKFNWYVDGVEVHNAKTKPREEQYNSTYRVVSVLTVLHQDWLNGKEYKCKVSNKALPAPIEKTISKAKGQPREPQVYTLPPSREEMTKNQVSLTCLVKGFYPSDIAVEWESNGQPENNYKTTPPVLDSDGSFFLYSKLTVDKSRWQQGNVFSCSVMHEALHNHYTQKSLSLSPG
6800
